- target or test system: purified full-length recombinant human ERβ (Homo sapiens)
- Sequence (Q92731 whole entry): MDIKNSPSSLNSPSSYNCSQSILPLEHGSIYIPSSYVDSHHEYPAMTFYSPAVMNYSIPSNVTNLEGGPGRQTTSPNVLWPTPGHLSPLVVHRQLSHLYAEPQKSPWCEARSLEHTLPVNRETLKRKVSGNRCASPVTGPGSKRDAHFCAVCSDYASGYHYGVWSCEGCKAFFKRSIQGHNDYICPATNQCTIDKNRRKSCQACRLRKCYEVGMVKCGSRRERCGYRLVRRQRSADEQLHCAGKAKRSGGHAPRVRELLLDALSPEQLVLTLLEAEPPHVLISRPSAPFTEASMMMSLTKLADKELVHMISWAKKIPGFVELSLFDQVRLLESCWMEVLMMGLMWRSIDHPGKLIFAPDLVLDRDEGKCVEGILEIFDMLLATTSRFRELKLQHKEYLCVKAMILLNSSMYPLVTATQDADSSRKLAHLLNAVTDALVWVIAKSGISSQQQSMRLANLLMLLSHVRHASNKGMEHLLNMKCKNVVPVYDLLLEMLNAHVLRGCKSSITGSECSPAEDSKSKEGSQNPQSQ
- protocol text: Estrogen receptor β competitive radiometric binding assay ([3H]-E2)
pIC50: −log10 of the molar value.
Recorded pIC50 values for a group of compounds are listed next.

compound: N#CC(Cc1ccc(F)cc1)c1noc2cc(O)ccc12 (stereo not drawn)
target or test system: purified full-length recombinant human ERβ (Homo sapiens)
pIC50: 6.91
--
compound: Oc1ccc2c(C3CCCCC3)nsc2c1
target or test system: purified full-length recombinant human ERβ (Homo sapiens)
pIC50: 7.42
--
compound: Oc1ccc2c(C3CCCCC3)n[nH]c2c1
target or test system: purified full-length recombinant human ERβ (Homo sapiens)
pIC50: 7.99
--
compound: N#CC(Cc1ccc(O)c(O)c1)c1noc2cc(O)ccc12 (stereo not drawn)
target or test system: purified full-length recombinant human ERβ (Homo sapiens)
pIC50: 6.87
--
compound: Oc1ccc2c(C3CCCCC3)noc2c1
target or test system: purified full-length recombinant human ERβ (Homo sapiens)
pIC50: 7.35
--
compound: Oc1ccc(Cc2noc3cc(O)ccc23)cc1
target or test system: purified full-length recombinant human ERβ (Homo sapiens)
pIC50: 6.31
--
compound: N#CC(Cc1ccc(O)c(F)c1)c1noc2cc(O)ccc12 (stereo not drawn)
target or test system: purified full-length recombinant human ERβ (Homo sapiens)
pIC50: 7.84
--
compound: Oc1ccc2c(C3CCCC3)n[nH]c2c1
target or test system: purified full-length recombinant human ERβ (Homo sapiens)
pIC50: 7.38
--
compound: N#CC(Cc1ccc(O)cc1)c1noc2cc(O)ccc12 (stereo not drawn)
target or test system: purified full-length recombinant human ERβ (Homo sapiens)
pIC50: 8.12
--
compound: Oc1ccc2c(C3CCCCCC3)noc2c1
target or test system: purified full-length recombinant human ERβ (Homo sapiens)
pIC50: 7.69
--
compound: Cl.Oc1ccc2c(C34CC5CC(CC(C5)C3)C4)n[nH]c2c1 [Ex 31, hydrochloride]
target or test system: purified full-length recombinant human ERβ (Homo sapiens)
pIC50: 7.44
--
compound: NS(=O)(=O)n1nc(C2CCCCC2)c2ccc(O)cc21
target or test system: purified full-length recombinant human ERβ (Homo sapiens)
pIC50: 6.73

* * *

- target or test system: purified full-length recombinant human ERβ (Homo sapiens)
- protocol text: Estrogen receptor β competitive radiometric binding assay ([3H]-E2)
- condition notes: ratio of the IC50 for ERα to the IC50 for ERβ

given smiles: Cl.Oc1ccc2c(C34CC5CC(CC(C5)C3)C4)n[nH]c2c1
R (IC50s) αβ: 3.3

given smiles: Oc1ccc(Cc2noc3cc(O)ccc23)cc1
R (IC50s) αβ: 6.0

given smiles: Oc1ccc2c(C3CCCCC3)noc2c1
R (IC50s) αβ: 5.8

given smiles: NS(=O)(=O)n1nc(C2CCCCC2)c2ccc(O)cc21
R (IC50s) αβ: 7.9

given smiles: Oc1ccc2c(C3CCCCC3)nsc2c1
R (IC50s) αβ: 2.3

* * *

Recorded RBA (%) Mean ± S.E.M, ER α values for a group of molecules are listed next.
- target or test system: purified full-length recombinant human ERα (Homo sapiens, UniProt P03372)
- Sequence (P03372 1-595): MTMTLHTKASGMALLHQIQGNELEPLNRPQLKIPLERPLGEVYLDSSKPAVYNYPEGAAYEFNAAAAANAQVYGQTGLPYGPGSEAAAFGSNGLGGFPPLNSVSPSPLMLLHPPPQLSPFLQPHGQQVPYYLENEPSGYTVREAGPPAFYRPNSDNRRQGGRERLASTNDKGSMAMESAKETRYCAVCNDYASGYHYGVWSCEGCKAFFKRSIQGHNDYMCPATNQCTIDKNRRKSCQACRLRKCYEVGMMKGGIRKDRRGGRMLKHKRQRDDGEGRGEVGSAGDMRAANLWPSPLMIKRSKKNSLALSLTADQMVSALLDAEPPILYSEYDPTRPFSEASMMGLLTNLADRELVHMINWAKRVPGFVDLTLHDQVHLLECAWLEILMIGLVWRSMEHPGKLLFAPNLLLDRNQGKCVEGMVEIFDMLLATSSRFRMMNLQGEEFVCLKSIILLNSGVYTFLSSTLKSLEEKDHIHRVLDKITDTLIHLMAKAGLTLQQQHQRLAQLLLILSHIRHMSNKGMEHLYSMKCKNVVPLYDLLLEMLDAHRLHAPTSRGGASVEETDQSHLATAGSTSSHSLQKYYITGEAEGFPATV
- protocol text: Estrogen receptor α competitive radiometric binding assay ([3H]-E2)
- condition notes: ratio of IC50s of E2 and competitor; E2 set at 100%

molecule: Oc1ccc2c(C3CCCCCC3)noc2c1 [Ex 65, 3-cycloheptyl-1,2-benzisoxazol-6-ol]
RBA (%) Mean ± S.E.M, ER α: 2.5
--
molecule: Oc1ccc2c(C3CCCCC3)n[nH]c2c1 [Ex 24, 3-cyclohexyl-1H-indazol-6-ol]
RBA (%) Mean ± S.E.M, ER α: 1.2
--
molecule: Oc1ccc(Cc2noc3cc(O)ccc23)cc1 [Ex 73]
RBA (%) Mean ± S.E.M, ER α: 0.1
--
molecule: N#CC(Cc1ccc(O)cc1)c1noc2cc(O)ccc12 (stereo not drawn) [Ex 80]
RBA (%) Mean ± S.E.M, ER α: 3.4
--
molecule: N#CC(Cc1ccc(O)c(F)c1)c1noc2cc(O)ccc12 (stereo not drawn) [Ex 81]
RBA (%) Mean ± S.E.M, ER α: 2.4
--
molecule: Oc1ccc2c(C3CCCCC3)nsc2c1 [Ex 93, 3-cyclohexyl-1,2-benzisothiazol-6-ol]
RBA (%) Mean ± S.E.M, ER α: 1.3
--
molecule: Cl.Oc1ccc2c(C34CC5CC(CC(C5)C3)C4)n[nH]c2c1 [Ex 31]
RBA (%) Mean ± S.E.M, ER α: 3.1
--
molecule: Oc1ccc2c(C3CCCCC3)noc2c1 [Ex 66, 3-cyclohexyl-1,2-benzisoxazol-6-ol]
RBA (%) Mean ± S.E.M, ER α: 1.1
--
molecule: NS(=O)(=O)n1nc(C2CCCCC2)c2ccc(O)cc21 [Ex 40]
RBA (%) Mean ± S.E.M, ER α: 0.1
--
molecule: N#CC(Cc1ccc(O)c(O)c1)c1noc2cc(O)ccc12 (stereo not drawn) [Ex 86]
RBA (%) Mean ± S.E.M, ER α: 0.2
--
molecule: Oc1ccc2c(C3CCCC3)n[nH]c2c1 [Ex 23, 3-cyclopentyl-1H-indazol-6-ol]
RBA (%) Mean ± S.E.M, ER α: 0.2
--
molecule: N#CC(Cc1ccc(F)cc1)c1noc2cc(O)ccc12 (stereo not drawn) [Ex 84]
RBA (%) Mean ± S.E.M, ER α: 0.1

* * *

Recorded melting point values for a group of molecules are listed next.
observable: melting point (°C)

molecule: Oc1ccc2c(C3CCCC3)nsc2c1
observable: melting point
assay value: 130
--
molecule: Oc1ccc2c(C3CCCCC3)nn(Cc3ccccc3)c2c1
observable: melting point
assay value: 154
--
molecule: N#CC(Cc1ccc(F)cc1)c1noc2cc(O)ccc12 (stereo not drawn)
observable: melting point
assay value: 152
--
molecule: Oc1ccc2c(C34CC5CC(CC(C5)C3)C4)noc2c1
observable: melting point
assay value: 215
--
molecule: Cn1nc(C2CCCCC2)c2ccc(O)cc21
observable: melting point
assay value: 205
--
molecule: NS(=O)(=O)n1nc(C2CCCCCC2)c2ccc(O)cc21
observable: melting point
assay value: 155

* * *

Recorded melting point values for a group of molecules are listed next.

molecule: Cl.Oc1ccc2c(C3CCCC3)nn(CCN3CCCCC3)c2c1
value unit: °C
melting point: 120
--
molecule: Oc1ccc2c(C3CCCCCC3)noc2c1 [Ex 65, 3-cycloheptyl-1,2-benzisoxazol-6-ol]
value unit: °C
melting point: 156
--
molecule: NS(=O)(=O)Oc1ccc2c(C3CCCC3)nsc2c1 [Example 96]
value unit: °C
melting point: 132
--
molecule: NS(=O)(=O)Oc1ccc2c(C3CCCCCC3)noc2c1 [Example 75]
value unit: °C
melting point: 82
--
molecule: Cl.Oc1ccc(C2=COc3cc(O)cc4[nH]nc2c34)cc1
value unit: °C
melting point: 111
--
molecule: COc1ccc(C2=COc3cc(O)cc4[nH]nc2c34)cc1.Cl
value unit: °C
melting point: 255
--
molecule: Oc1ccc2c(C3CCCCC3)noc2c1 [Ex 66, 3-cyclohexyl-1,2-benzisoxazol-6-ol]
value unit: °C
melting point: 181
--
molecule: NS(=O)(=O)Oc1ccc2c(C34CC5CC(CC(C5)C3)C4)noc2c1 [Example 74]
value unit: °C
melting point: 87
--
molecule: Oc1ccc(-n2nc(C3CCCC3)c3ccc(O)cc32)cc1 [Example 26]
value unit: °C
melting point: 178
--
molecule: COc1ccc2c(C(C#N)Cc3ccc(O)cc3C)noc2c1 (centres unmarked) [Example 82]
value unit: °C
melting point: 131
--
molecule: NS(=O)(=O)n1nc(C2CCCCC2)c2ccc(O)cc21 [Ex 40]
value unit: °C
melting point: 162
--
molecule: Oc1ccc2c(C3CCCC3)nn(Cc3ccc(Br)cc3)c2c1 [Example 28]
value unit: °C
melting point: 147
--
molecule: Cl.Oc1ccc2c(C3CCCCCC3)n[nH]c2c1
value unit: °C
melting point: 95
--
molecule: NS(=O)(=O)Oc1ccc2c(C3CCCCC3)noc2c1 [Example 76]
value unit: °C
melting point: 145
--
molecule: Oc1ccc2c(C3CCCCC3)nsc2c1 [Ex 93, 3-cyclohexyl-1,2-benzisothiazol-6-ol]
value unit: °C
melting point: 190
--
molecule: N#CC(Cc1ccc(O)c(O)c1)c1noc2cc(O)ccc12 (centres unmarked) [Ex 86]
value unit: °C
melting point: 154
--
molecule: Oc1ccc2c(C3CCCCC3)n[nH]c2c1 [Ex 24, 3-cyclohexyl-1H-indazol-6-ol]
value unit: °C
melting point: 147
--
molecule: N#CC(Cc1ccc(O)c(F)c1)c1noc2cc(O)ccc12 (centres unmarked) [Ex 81]
value unit: °C
melting point: 201
--
molecule: c1ccc(COc2ccc3c(C4CCCCCC4)noc3c2)cc1 [Example 63]
value unit: °C
melting point: 80
--
molecule: Cn1nc(C2CCCCC2)c2ccc(S(N)(=O)=O)cc21 [Example 36]
value unit: °C
melting point: 188

// provenance: patent US7977364B2
